Biological target: Serine/threonine-protein kinase TBK1 (Homo sapiens) (UniProt Q9UHD2);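 also: values are mean inhibition of TBK1, screened as part of the GSK published kinase inhibitor set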
Sequence (Q9UHD2 whole entry): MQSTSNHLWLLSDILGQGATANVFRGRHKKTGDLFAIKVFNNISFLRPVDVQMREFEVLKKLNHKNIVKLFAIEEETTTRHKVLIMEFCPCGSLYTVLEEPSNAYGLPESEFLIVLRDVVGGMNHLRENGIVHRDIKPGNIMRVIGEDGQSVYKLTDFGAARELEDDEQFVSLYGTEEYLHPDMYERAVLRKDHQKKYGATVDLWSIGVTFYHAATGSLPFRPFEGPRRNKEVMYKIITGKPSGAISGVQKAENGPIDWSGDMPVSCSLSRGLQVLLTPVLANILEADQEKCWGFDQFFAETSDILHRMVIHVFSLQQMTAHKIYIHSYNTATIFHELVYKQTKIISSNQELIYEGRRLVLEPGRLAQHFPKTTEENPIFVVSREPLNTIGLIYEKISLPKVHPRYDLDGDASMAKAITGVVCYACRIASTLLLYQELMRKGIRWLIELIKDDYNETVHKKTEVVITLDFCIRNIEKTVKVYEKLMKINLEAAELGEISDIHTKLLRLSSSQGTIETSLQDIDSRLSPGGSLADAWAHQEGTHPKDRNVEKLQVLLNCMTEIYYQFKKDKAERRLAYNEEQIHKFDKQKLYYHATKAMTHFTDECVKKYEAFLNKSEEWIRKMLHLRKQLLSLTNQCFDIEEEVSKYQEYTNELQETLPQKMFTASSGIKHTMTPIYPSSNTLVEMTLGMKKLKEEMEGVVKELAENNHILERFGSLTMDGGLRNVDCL
Details: at 1 µM
Below, each entry is listed with its recorded inhibition.
Express it in %; write the number only.

query: Given Oc1cccc(-c2nc(-c3ccccc3)[nH]c2-c2ccncc2)c1 , respond with its inhibition.
result: 2.77

query: Given N#Cc1c(NC(=O)c2ccccc2F)sc2c1CCCC2 , respond with its inhibition.
result: -0.25

query: Given O=C1Nc2ccccc2/C1=C/Nc1ccc2[nH]c(=O)[nH]c2c1 , respond with its inhibition.
result: 21.2

query: Given Cc1cc(Cl)cc2c1NC(=O)C2=NNc1ccc(S(N)(=O)=O)cc1 , respond with its inhibition.
result: 1.59

query: Given COc1cc(Nc2nccc(-c3cnn4ncccc34)n2)cc(OC)c1 , respond with its inhibition.
result: 33.2

query: Given NC(=O)c1cccc(Nc2nccc(Nc3cccc(F)c3)n2)c1 , respond with its inhibition.
result: 6.93

###

Target: Tyrosine-protein kinase FRK (Homo sapiens);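 also: values are mean inhibition of PTK5 (FRK) kinase activity from the GSK PKIS screening set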
Conditions: at 0.1 µM
Metric: inhibition
Note to self: number, then unit, no commentary.

Solved entries (count: 3):
* CN(C)C(=O)O[C@H]1CN[C@H](C#Cc2cc3ncnc(Nc4ccc(OCc5cccc(F)c5)c(Cl)c4)c3s2)C1 | 1.37%
* Oc1cccc(-c2nc(-c3ccccc3)[nH]c2-c2ccncc2)c1 | 2.98%
* OCc1ccc(-c2nc(-c3ccccn3)c(-c3ccc4c(c3)OCO4)[nH]2)cc1 | 2.25%

query: Given Cc1ccc(O)cc1Nc1ccnc2ccc(S(C)(=O)=O)cc12 , respond with its inhibition.
result: 89%

query: Given CN1CCN(C(=O)c2ccc(NC(=O)Nc3ccc(N(C)c4ccnc(Nc5ccc(CS(C)(=O)=O)cc5)n4)cc3)cc2)CC1 , respond with its inhibition.
result: 1.47%

query: Given CS(=O)(=O)CCNCc1nc(-c2ccc3ncnc(Nc4ccc(OCc5cccc(C(F)(F)F)c5)cc4)c3c2)cs1 , respond with its inhibition.
result: 1.71%

query: Given NS(=O)(=O)c1ccc(-c2cc3ccncc3cc2OCc2ccccc2)cc1 , respond with its inhibition.
result: 2%

query: Given COC(=O)Nc1nc2cc(Oc3ccc(NC(=O)Nc4cccc(Br)c4)cc3)ccc2[nH]1 , respond with its inhibition.
result: 2.82%

query: Given COc1cc2ncnc(Nc3ccc(C)c(O)c3)c2cc1OC , respond with its inhibition.
result: 7.74%

query: Given CCn1c(-c2nonc2N)nc2ccc(F)cc21 , respond with its inhibition.
result: 2.61%

###

Target: Phosphatidylinositol 4,5-bisphosphate 3-kinase catalytic subunit alpha isoform (Homo sapiens) (UniProt P42336);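 also: values are mean inhibition figures from the GSK PKIS kinase panel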
Sequence (P42336 whole entry, canonical isoform): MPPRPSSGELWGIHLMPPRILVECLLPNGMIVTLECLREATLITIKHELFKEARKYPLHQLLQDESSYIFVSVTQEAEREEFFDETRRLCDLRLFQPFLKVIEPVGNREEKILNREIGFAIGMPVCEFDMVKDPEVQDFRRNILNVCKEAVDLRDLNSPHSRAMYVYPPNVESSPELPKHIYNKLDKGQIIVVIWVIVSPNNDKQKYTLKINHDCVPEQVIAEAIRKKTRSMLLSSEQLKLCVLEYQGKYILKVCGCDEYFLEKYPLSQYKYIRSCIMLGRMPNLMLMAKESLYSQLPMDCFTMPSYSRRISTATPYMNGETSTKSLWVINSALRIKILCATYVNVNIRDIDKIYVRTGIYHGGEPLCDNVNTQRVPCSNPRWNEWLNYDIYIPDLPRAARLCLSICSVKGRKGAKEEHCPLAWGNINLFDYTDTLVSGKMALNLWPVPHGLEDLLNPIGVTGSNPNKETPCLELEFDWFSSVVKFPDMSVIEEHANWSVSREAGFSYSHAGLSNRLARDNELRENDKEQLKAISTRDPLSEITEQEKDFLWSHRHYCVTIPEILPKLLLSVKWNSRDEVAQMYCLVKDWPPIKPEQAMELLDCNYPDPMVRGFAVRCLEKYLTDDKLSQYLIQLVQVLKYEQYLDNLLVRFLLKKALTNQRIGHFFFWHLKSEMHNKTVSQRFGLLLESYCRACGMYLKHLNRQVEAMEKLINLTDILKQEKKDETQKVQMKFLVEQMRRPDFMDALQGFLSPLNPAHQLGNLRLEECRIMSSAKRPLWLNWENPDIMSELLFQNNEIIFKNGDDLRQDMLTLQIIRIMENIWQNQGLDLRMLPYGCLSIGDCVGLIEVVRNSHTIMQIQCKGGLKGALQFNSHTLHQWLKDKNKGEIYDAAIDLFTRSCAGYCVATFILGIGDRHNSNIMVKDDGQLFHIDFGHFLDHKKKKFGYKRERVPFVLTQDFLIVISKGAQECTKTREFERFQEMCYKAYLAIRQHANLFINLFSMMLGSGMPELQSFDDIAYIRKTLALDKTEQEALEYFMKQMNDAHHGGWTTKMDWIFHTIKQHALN
Settings: at 0.1 µM
Metric: inhibition (%)
Express it in %; write the number only.

- CCOc1nccc2c1nc(-c1nonc1N)n2CC: 2.9
- Cc1ccc(C(=O)NC2CC2)cc1-c1ccc2[nH]ncc2c1: -3.9
- OCc1ccc(-c2nc(-c3ccccn3)c(-c3ccc4c(c3)OCO4)[nH]2)cc1: 3.36
- COc1cc2ncn(-c3cc(OCc4ccccc4S(C)(=O)=O)c(C#N)s3)c2cc1OC: 3.16
- O=C(Nc1ccc(Oc2ccc3[nH]c(NC(=O)c4ccco4)nc3c2)cc1)Nc1cc(C(F)(F)F)ccc1F: -0.31

query: Given c1ccc(Cc2nc3ccc(Nc4ncnc5ccccc45)cc3[nH]2)cc1 , respond with its inhibition.
result: 3.03

###

Target: Leucine-rich repeat serine/threonine-protein kinase 2 (Homo sapiens);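 also: reported values are averaged percent inhibition of LRRK2 kinase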
Settings: at 0.1 µM
Metric: inhibition (%)
Express it in %; write the number only.

Solved entries (count: 5):
* CCn1c(-c2nonc2N)nc2c(C#CC(C)(C)O)nc(OCCNC)cc21 | -2.14
* COc1cc2ncn(-c3cc(OCc4ccccc4S(C)(=O)=O)c(C#N)s3)c2cc1OC | 25.5
* CS(=O)(=O)CCNCc1nc(-c2ccc3ncnc(Nc4ccc(OCc5cccc(C(F)(F)F)c5)cc4)c3c2)cs1 | 1.09
* C[C@@H](Oc1cc(-n2cnc3ccc(OCC4CCN(C)CC4)cc32)sc1C(N)=O)c1ccccc1C(F)(F)F | 6.53
* Cc1ccc(Nc2ccnc(Nc3cccc(C(N)=O)c3)n2)cc1O | 0.74

query: Given Nc1nccc(-c2c(-c3ccc(F)cc3)ncn2CCCN2CCOCC2)n1 , respond with its inhibition.
result: 1.92

query: Given N#Cc1c(NC(=O)c2ccccc2F)sc2c1CCCC2 , respond with its inhibition.
result: 1.84
